Values compiled from the supplement of paper PMC11551840.

Tested on: ORL-207
EXPERIMENT_NOTES: IC50 (cell viability, 72 h) (ln(µM))
Classes by IC50 (ln): low (below -5), mid (-5 to below -3), high (-3 or more)

Request: // return the class label for `CCNC(=O)c1noc(-c2cc(C(C)C)c(O)cc2O)c1-c1ccc(CN2CCOCC2)cc1`
Response: mid

Request: // return the class label for `CN(C)C/C=C/C(=O)Nc1ccc(C(=O)Nc2cccc(Nc3ncc(Cl)c(-c4c[nH]c5ccccc45)n3)c2)cc1`
Response: high

Request: // return the class label for `CC(=O)O[C@@]12CO[C@@H]1C[C@H](O)[C@@]1(C)C(=O)[C@H](O)C3=C(C)[C@@H](OC(=O)[C@H](O)[C@@H](NC(=O)OC(C)(C)C)c4ccccc4)C[C@@](O)([C@@H](OC(=O)c4ccccc4)[C@H]21)C3(C)C`
Response: low

Request: // return the class label for `CN[C@@H]1C[C@H]2O[C@@](C)([C@@H]1OC)n1c3ccccc3c3c4c(c5c6ccccc6n2c5c31)C(=O)NC4`
Response: mid

Request: // return the class label for COCC[n+]1c2c(n(Cc3cnccn3)c1C)C(=O)c1ccccc1C2=O [Sepantronium bromide]
Response: low

Request: // return the class label for `COc1ncc(-c2ccc3nccc(-c4ccnnc4)c3c2)cc1NS(=O)(=O)c1ccc(F)cc1F`
Response: mid

Request: // return the class label for `CC[C@@]1(O)C(=O)OCc2c1cc1n(c2=O)Cc2cc3ccccc3nc2-1`
Response: mid

Request: // return the class label for `CO[C@H]1C[C@@H]2CC[C@@H](C)[C@@](O)(O2)C(=O)C(=O)N2CCCC[C@H]2C(=O)O[C@H]([C@H](C)C[C@@H]2CC[C@@H](O)[C@H](OC)C2)CC(=O)[C@H](C)/C=C(\C)[C@@H](O)[C@@H](OC)C(=O)[C@H](C)C[C@H](C)/C=C/C=C/C=C/1C`
Response: mid

Request: // return the class label for `CC[C@@H]1C(=O)N(C)c2cnc(Nc3ccc(C(=O)N[C@H]4CC[C@H](N5CCN(CC6CC6)CC5)CC4)cc3OC)nc2N1C(C)C`
Response: high

====

Test system: PE-CA-PJ15
EXPERIMENT_NOTES: IC50 (cell viability, 72 h) (ln(µM))
Classes by IC50 (ln): low bin (below -3), mid bin (-3 to below -1), high bin (-1 or more)

Request: // return the class label for `CCc1cnn2c(NCc3ccc[n+]([O-])c3)cc(N3CCCC[C@H]3CCO)nc12`
Response: low bin

Request: // return the class label for `CC(=O)O[C@H]1C(=O)[C@@]2(C)[C@H]([C@H](OC(=O)c3ccccc3)[C@]3(O)C[C@H](OC(=O)[C@H](O)[C@@H](NC(=O)c4ccccc4)c4ccccc4)C(C)=C1C3(C)C)[C@]1(OC(C)=O)CO[C@@H]1C[C@@H]2O`
Response: mid bin

Request: // return the class label for `CCC1=C[C@@H]2CN(C1)Cc1c([nH]c3ccccc13)[C@@](C(=O)OC)(c1cc3c(cc1OC)N(C)[C@H]1[C@@](O)(C(=O)OC)[C@H](OC(C)=O)[C@]4(CC)C=CCN5CC[C@]31[C@@H]54)C2`
Response: mid bin

Request: // return the class label for `Cc1[nH]c2ccccc2c1CCNCc1ccc(/C=C/C(=O)NO)cc1`
Response: high bin

Request: // return the class label for `CC[C@@H]1C(=O)N(C)c2cnc(Nc3ccc(C(=O)NC4CCN(C)CC4)cc3OC)nc2N1C1CCCC1`
Response: high bin

Request: // return the class label for `COc1ncc(-c2ccc3nccc(-c4ccnnc4)c3c2)cc1NS(=O)(=O)c1ccc(F)cc1F`
Response: mid bin

Request: // return the class label for `Cc1cc(-c2nc(-c3ccc(OC(F)(F)F)cc3)no2)nn1Cc1ccnc(N2CCN(C3CC3)CC2)c1`
Response: mid bin

Request: // return the class label for `CC[C@@]1(O)C(=O)OCc2c1cc1n(c2=O)Cc2cc3ccccc3nc2-1`
Response: mid bin

Request: // return the class label for `CC(=O)O[C@@]12CO[C@@H]1C[C@H](O)[C@@]1(C)C(=O)[C@H](O)C3=C(C)[C@@H](OC(=O)[C@H](O)[C@@H](NC(=O)OC(C)(C)C)c4ccccc4)C[C@@](O)([C@@H](OC(=O)c4ccccc4)[C@H]21)C3(C)C`
Response: low bin

Request: // return the class label for `CCNC(=O)c1noc(-c2cc(C(C)C)c(O)cc2O)c1-c1ccc(CN2CCOCC2)cc1`
Response: mid bin

Request: // return the class label for `CO[C@H]1C[C@@H]2CC[C@@H](C)[C@@](O)(O2)C(=O)C(=O)N2CCCC[C@H]2C(=O)O[C@H]([C@H](C)C[C@@H]2CC[C@@H](O)[C@H](OC)C2)CC(=O)[C@H](C)/C=C(\C)[C@@H](O)[C@@H](OC)C(=O)[C@H](C)C[C@H](C)/C=C/C=C/C=C/1C`
Response: high bin

Request: // return the class label for `CC[C@@]1(O)C(=O)OCc2c1cc1n(c2=O)Cc2cc3c(CN(C)C)c(O)ccc3nc2-1`
Response: high bin

Request: // return the class label for `CCc1c2c(nc3ccc(O)cc13)-c1cc3c(c(=O)n1C2)COC(=O)[C@]3(O)CC`
Response: mid bin

Request: // return the class label for `CC[C@@H]1C(=O)N(C)c2cnc(Nc3ccc(C(=O)N[C@H]4CC[C@H](N5CCN(CC6CC6)CC5)CC4)cc3OC)nc2N1C(C)C`
Response: high bin

Request: // return the class label for `CN[C@@H]1C[C@H]2O[C@@](C)([C@@H]1OC)n1c3ccccc3c3c4c(c5c6ccccc6n2c5c31)C(=O)NC4`
Response: mid bin

Request: // return the class label for COCC[n+]1c2c(n(Cc3cnccn3)c1C)C(=O)c1ccccc1C2=O [Sepantronium bromide]
Response: low bin

Request: // return the class label for `Cc1c2oc3c(C)ccc(C(=O)N[C@@H]4C(=O)N[C@H](C(C)C)C(=O)N5CCC[C@H]5C(=O)N(C)CC(=O)N(C)[C@@H](C(C)C)C(=O)O[C@@H]4C)c3nc-2c(C(=O)N[C@@H]2C(=O)N[C@H](C(C)C)C(=O)N3CCC[C@H]3C(=O)N(C)CC(=O)N(C)[C@@H](C(C)C)C(=O)O[C@@H]2C)c(N)c1=O`
Response: low bin

Request: // return the class label for `CC(C)C[C@@H](C=O)NC(=O)[C@H](CC(C)C)NC(=O)[C@H](CC(C)C)NC(=O)OCc1ccccc1`
Response: high bin

Request: // return the class label for `CN(C)C/C=C/C(=O)Nc1ccc(C(=O)Nc2cccc(Nc3ncc(Cl)c(-c4c[nH]c5ccccc45)n3)c2)cc1`
Response: mid bin

Request: // return the class label for `C/C=C1\NC(=O)[C@H]2CSSCC/C=C/[C@H](CC(=O)N[C@H](C(C)C)C(=O)N2)OC(=O)[C@H](C(C)C)NC1=O`
Response: low bin

Request: // return the class label for `CC(C)C[C@H](NC(=O)[C@H](Cc1ccccc1)NC(=O)c1cnccn1)B(O)O`
Response: low bin

Request: // return the class label for `CC[C@]1(O)C[C@@H]2CN(CCc3c([nH]c4ccccc34)[C@@](C(=O)OC)(c3cc4c(cc3OC)N(C)[C@H]3[C@@](O)(C(=O)OC)[C@H](OC(C)=O)[C@]5(CC)C=CCN6CC[C@]43[C@@H]65)C2)C1`
Response: mid bin

====

Give measured IC50 (ln) for each item. Keep answers brief.
System: ORL-207
EXPERIMENT_NOTES: IC50 (cell viability, 72 h) (ln(µM))
Write no unit; give the number alone.

Request: Fill in the blank: the reported IC50 (ln) of `C/C=C1\NC(=O)[C@H]2CSSCC/C=C/[C@H](CC(=O)N[C@H](C(C)C)C(=O)N2)OC(=O)[C@H](C(C)C)NC1=O` is ____.
Response: -4.74

Request: Fill in the blank: the reported IC50 (ln) of `CC(C)C[C@@H](C=O)NC(=O)[C@H](CC(C)C)NC(=O)[C@H](CC(C)C)NC(=O)OCc1ccccc1` is ____.
Response: -1.48

Request: Fill in the blank: the reported IC50 (ln) of `Cc1cc(-c2nc(-c3ccc(OC(F)(F)F)cc3)no2)nn1Cc1ccnc(N2CCN(C3CC3)CC2)c1` is ____.
Response: -2.38

Request: Fill in the blank: the reported IC50 (ln) of `Cc1c2oc3c(C)ccc(C(=O)N[C@@H]4C(=O)N[C@H](C(C)C)C(=O)N5CCC[C@H]5C(=O)N(C)CC(=O)N(C)[C@@H](C(C)C)C(=O)O[C@@H]4C)c3nc-2c(C(=O)N[C@@H]2C(=O)N[C@H](C(C)C)C(=O)N3CCC[C@H]3C(=O)N(C)CC(=O)N(C)[C@@H](C(C)C)C(=O)O[C@@H]2C)c(N)c1=O` is ____.
Response: -5.32

Request: Fill in the blank: the reported IC50 (ln) of `CC(=O)O[C@H]1C(=O)[C@@]2(C)[C@H]([C@H](OC(=O)c3ccccc3)[C@]3(O)C[C@H](OC(=O)[C@H](O)[C@@H](NC(=O)c4ccccc4)c4ccccc4)C(C)=C1C3(C)C)[C@]1(OC(C)=O)CO[C@@H]1C[C@@H]2O` is ____.
Response: -5.88

Request: Fill in the blank: the reported IC50 (ln) of `CC(C)C[C@H](NC(=O)[C@H](Cc1ccccc1)NC(=O)c1cnccn1)B(O)O` is ____.
Response: -5.3
